# Tested on: U937 human histiocytic leukemia cell line
# protocol-notes: Assay 1: inhibition of TSQ induced necroptosis, 96 well plate format
# Type: cell-based
# measurement-context: U-937, comparison tables of the description, values as in Table 1 (assay 1), read-out: IC50 (nM) Necroptosis inhibition
hey, just use MET if measured IC50 is less than 70 nM, otherwise NOT MET

Observe how each entry below is paired with its result.
CN(c1ccc(NC(=O)Nc2ccc(OC(F)(F)F)cc2)cc1)c1nc(Nc2cccc(S(N)(=O)=O)c2)ncc1C(F)(F)F : NOT MET
Cc1ccc(Nc2nccc(N(C)c3ccc(NC(=O)Nc4ccc(OC(F)(F)F)cc4)cc3)n2)cc1S(N)(=O)=O [Compound 21 from AU 2014903569, reference compound] : NOT MET
CN(c1ccc(NC(=O)Nc2ccc(OC(F)(F)F)cc2)cc1)c1ccnc(Nc2cccc(N3CCCC3=O)c2)n1 : NOT MET

stdin: Quick check: IC50 of CN(c1ccc(NC(=O)Nc2cc(F)cc(C(F)(F)F)c2)cc1)c1ccnc(Nc2cccc(S(N)(=O)=O)c2)n1 under 70 nM?
stdout: MET

stdin: API: query returns whether the compound falls strictly under 70 nM in IC50. Query: CNC(=O)c1cc(Nc2nccc(N(C)c3ccc(NC(=O)Nc4ccc(OC(F)(F)F)cc4)cc3)n2)ccc1C
stdout: NOT MET

stdin: Find out if reported IC50 for CNC(=O)c1cc(Nc2ncc(F)c(N(C)c3ccc(NC(=O)Nc4ccc(OC(F)(F)F)cc4)cc3)n2)ccc1C is less than 70 nM
stdout: MET

stdin: Please let me know if CN(c1ccc(NC(=O)Nc2ccc(OC(F)(F)F)cc2)cc1)c1nc(Nc2cccc(S(N)(=O)=O)c2)ncc1Cl shows IC50 below 70 nM.
stdout: MET

From: patent US20180057465A1
